molecular target: Calmodulin-dependent cyclic-AMP phosphodiesterase (EC 3.1.4.17) (Bos taurus, UniProt P14100); construct: An enzyme substance isolated from the heart of bovine and purified partially; from tissue; host or cells: bovine heart; assay: Pharmacological Test-2 (2): Cyclic-AMP phosphodiesterase inhibitory activity (EGTA in place of CaCl2); format: biochemical, bovine; conditions: 1 mM EGTA in place of CaCl2, 3 hours; read-out: Cyclic-AMP phosphodiesterase IC50 (converted)
Sequence (P14100 1-514 isoform P14100-2): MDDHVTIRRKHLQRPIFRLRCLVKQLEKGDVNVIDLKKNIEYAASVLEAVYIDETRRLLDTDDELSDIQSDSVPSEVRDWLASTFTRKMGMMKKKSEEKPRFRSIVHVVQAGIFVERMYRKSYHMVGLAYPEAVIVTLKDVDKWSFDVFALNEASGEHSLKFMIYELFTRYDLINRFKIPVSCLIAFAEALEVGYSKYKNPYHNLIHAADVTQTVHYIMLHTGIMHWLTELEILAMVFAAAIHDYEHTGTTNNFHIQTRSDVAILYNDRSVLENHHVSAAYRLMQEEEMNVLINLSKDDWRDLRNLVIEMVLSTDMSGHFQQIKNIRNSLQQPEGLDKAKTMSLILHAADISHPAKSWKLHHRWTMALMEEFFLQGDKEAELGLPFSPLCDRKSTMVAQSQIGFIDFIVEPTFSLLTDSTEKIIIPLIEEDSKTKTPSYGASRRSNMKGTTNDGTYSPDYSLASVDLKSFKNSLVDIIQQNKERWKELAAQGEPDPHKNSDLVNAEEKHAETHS
Entries annotated with measured IC50
REPORTED PROPERTY: IC50 (µM)

compound="COC(=O)C1=C(C)NC(C)=C(C(=O)OC/C=C/c2ccc(OC(C)=O)cc2)C1c1cccc([N+](=O)[O-])c1 (stereo not shown) [Example 14]" readout_unit=µM qualifier== measured_value=98.7
compound="COC(=O)C1=C(C)NC(C)=C(C(=O)OC/C=C/c2ccccc2)C1c1cccc([N+](=O)[O-])c1 (stereo not shown) [Test Compound 2]" readout_unit=µM qualifier=> measured_value=223
compound="COC(=O)C1=C(C)NC(C)=C(C(=O)OC/C=C/c2ccc(O)cc2)C1c1ccccc1 (stereo not shown) [Test Compound 15]" readout_unit=µM qualifier== measured_value=76.3
compound="COC(=O)C1=C(C)NC(C)=C(C(=O)OCC#Cc2ccc(O)cc2)C1c1cccc([N+](=O)[O-])c1 (stereo not shown) [Test Compound 10]" readout_unit=µM qualifier== measured_value=28.1
compound="COC(=O)C1=C(C)NC(C)=C(C(=O)OC/C=C/c2ccc(OC)cc2)C1c1cccc([N+](=O)[O-])c1 (stereo not shown) [Test Compound 8]" readout_unit=µM qualifier=> measured_value=209
compound="COC(=O)C1=C(C)NC(C)=C(C(=O)OC/C=C/c2ccc(O)cc2)C1c1cccc([N+](=O)[O-])c1 (stereo not shown) [Test Compound 1]" readout_unit=µM qualifier== measured_value=129
compound="COC(=O)C1=C(C)NC(C)=C(C(=O)OCC/C=C/c2ccc(SC)cc2)C1c1cccc([N+](=O)[O-])c1 (stereo not shown) [Test Compound 13]" readout_unit=µM qualifier== measured_value=0.452
